- assay-protocol: qHTS Screen of the MIPE 4.0 Collection Against Ewings Sarcoma (EW8) (AID 1259255); further: nearly all actives have a fitted effect of over 35% in size
- run-conditions: EW8 Ewing sarcoma viability, CellTiter-Glo, 48 h; series mostly up to 45.8 µM
Inconclusive results are not listed. Calls of active or inactive are those of the source. The call rests on the fitted dose curve; in most records, active means well fitted inhibition curve with a large enough effect; inconclusive means small, poorly fitted or top-dose-only effect; inactive means no such curve, though single readings can be large or run the other way.
Outcome codes: active, inactive

CCCCCN(CCC12CC3CC(CC(C3)C1)C2)C(=O)NCCCc1ccncc1    active
CC1=C(CO)C(=O)O[C@@H]([C@@H](C)[C@H]2CC[C@H]3[C@@H]4C[C@H]5O[C@]56[C@@H](O)C=CC(=O)[C@]6(C)[C@@H]4CC[C@]23C)C1    active
COC(=O)[C@]12CCC(C)(C)C[C@@H]1[C@@H]1C(=O)C=C3[C@@]4(C)C=C(C#N)C(=O)C(C)(C)[C@@H]4CC[C@@]3(C)[C@]1(C)CC2    active
COc1cc2c(Nc3ccc(NC(=O)c4ccccc4)cc3)ncnc2cc1OCCCN1CCOCC1    active
CCc1c2c(nc3ccc(O)cc13)-c1cc3c(c(=O)n1C2)COC(=O)[C@]3(O)CC    active
C#Cc1cccc(Nc2ncnc3cc(OC)c(OCCCCCCC(=O)NO)cc23)c1    active
Cn1c2cc(S(C)=O)sc2c2cnn(Cc3cccc(N)c3)c(=O)c21 (stereo not given)    inactive
COc1cc(C)c(Sc2cnc(NC(=O)c3ccc(CNC(C)C(C)C)cc3)s2)cc1C(=O)N1CCN(C(C)=O)CC1 (stereo not given)    active
O=C(O)CO.[NH2-].[NH2-].[Pt+2]    inactive
CC(C)(O)c1cc2nc(-c3cnc(N)nc3)nc(N3CCOCC3)c2s1    active
CN1CCN(Cc2ccc(NC(=O)Nc3ccc(Oc4cc(NC(=O)C5CC5)ncn4)cc3)cc2C(F)(F)F)CC1    active
Cn1c(CNc2ccc(C(=N)N)cc2)nc2cc(C(=O)N(CCC(=O)O)c3ccccn3)ccc21    inactive
COC(=O)C[C@](O)(CCCC(C)(C)O)C(=O)O[C@@H]1C(OC)=C[C@]23CCCN2CCc2cc4c(cc2[C@H]13)OCO4    inactive
COc1cccc2c(NCc3ccccc3)nc(-n3c(N)nc4ccccc43)nc12    active
Cc1cc(Nc2cc(N3CCN(C)CC3)nc(C=Cc3ccccc3)n2)n[nH]1    active
O=C1CCC[C@@H]2[C@H]3CCC[N+]4([O-])CCC[C@@H](CN12)[C@@H]34 (stereo not given in full)    inactive
COc1ccc(C(=O)CC2(O)C(=O)Nc3c(Cl)ccc(Cl)c32)cc1 (stereo not given)    active
CN(C)CC=CC(=O)Nc1cc2c(Nc3ccc(F)c(Cl)c3)ncnc2cc1O[C@H]1CCOC1    active
Cc1cccc(C=NNc2cc(N3CCOCC3)nc(OCCc3ccccn3)n2)c1    active
Cn1cc(-c2ccncc2)c(-c2ccc(OCc3ccc4ccccc4n3)cc2)n1    active
CC(NCc1ccc2c(c1)nc(NC(=O)c1ccc(-c3cn[nH]c3)s1)n2CC(C)(C)O)C(C)(C)C (stereo not given)    active
NC(=O)Nc1cc(-c2cccc(F)c2)sc1C(=O)N[C@H]1CCCNC1    active
CC1COC2(CCN(c3nc(=O)c4cc(C(F)(F)F)cc([N+](=O)[O-])c4s3)CC2)O1 (stereo not given)    inactive
Cc1nc(Nc2n[nH]c3c2CN(C(=O)N[C@H](CN(C)C)c2ccccc2)C3(C)C)c2sccc2n1    active
CC(C)c1ccccc1Cc1cc(C(=O)Nc2ccc(S(=O)(=O)c3ccccc3C(C)(C)C)cc2)c(O)c(O)c1O    active
Cc1cc(N2CCOCC2)cc2[nH]c(-c3c(NC[C@@H](O)c4cccc(Cl)c4)cc[nH]c3=O)nc12    active
Cc1cnc(Nc2ccc(F)cc2Cl)nc1-c1c[nH]c(C(=O)N[C@H](CO)c2cccc(Cl)c2)c1    active
COc1ccc(F)c(F)c1C(=O)c1cnc(NC2CCN(S(C)(=O)=O)CC2)nc1N    active
COc1cc(C(C)C)c2c(c1)S(=O)(=O)N(COc1cc(=O)n3cccc(OCCN4CCCCC4)c3n1)C2=O    active
C=CC(=O)Nc1cccc(Oc2nc(Nc3ccc(N4CCN(C)CC4)cc3OC)ncc2Cl)c1    active
